Biological target: Cytochrome P450 3A4 (Homo sapiens)
Experiment: Cytochrome panel assay with activity outcomes; on activity, negative = inhibition: on the % scale 0 is the no-effect control and ±100 the full control effect
Details: recombinant CYP, pro-luciferin dealkylation, luminescence, p450-cyp3a4; series mostly up to 57.1 µM
Screen size: about 16,000 compounds; about 5,100 (32%) were called active. Another 25% or so got no clear call; they are omitted. The list shows a part of the results.

>  <TEST_SMILES>
O=C(NCP(=O)(O)O)c1cccnc1

>  <activity, negative = inhibition>
-14.3% [at 11.4 µM] (inactive)

$$$$
>  <TEST_SMILES>
O=c1[nH]oc2c1CCNC2

>  <activity, negative = inhibition>
inactive

$$$$
>  <TEST_SMILES>
Cc1c2cc[n+](CCN3CCCCC3)cc2c(C)c2c1[nH]c1ccc(O)cc12

>  <activity, negative = inhibition>
-14.8% [at 11.4 µM] (inactive)

$$$$
>  <TEST_SMILES>
CN(C)CCCc1c[nH]c2ccccc12

>  <activity, negative = inhibition>
-0.0212% [at 11.4 µM] (inactive)

$$$$
>  <TEST_SMILES>
CN1CCc2nc3ccc(F)cc3c(C(N)=O)c2C1

>  <activity, negative = inhibition>
inactive

$$$$
>  <TEST_SMILES>
O=NN(Cc1ccc(Cl)cc1)[C@@H](C(=O)O)c1ccccc1

>  <activity, negative = inhibition>
-7.56% [at 11.4 µM] (inactive)

$$$$
>  <TEST_SMILES>
CCN1C[C@]2(C)CC[C@H](O)[C@@]34[C@@H]5CC6[C@@H](OC)C[C@@](O)([C@@H]5[C@@H]6O)[C@H](C[C@@H]23)[C@H]14

>  <activity, negative = inhibition>
inactive

$$$$
>  <TEST_SMILES>
Cc1cc(NC(=O)CCC(=O)N2CCC3(CC2)OCCO3)no1

>  <activity, negative = inhibition>
inactive

$$$$
>  <TEST_SMILES>
NCCc1c[nH]c2ccc(OC(=O)C(=O)O)cc12

>  <activity, negative = inhibition>
-35.7% [at 11.4 µM] (inactive)

$$$$
>  <TEST_SMILES>
C=C(C)[C@H]1CC[C@]2(CO)CC[C@]3(C)[C@@H](CC[C@H]4[C@@]5(C)CC[C@@H](O)C(C)(C)[C@@H]5CC[C@@]43C)[C@H]12

>  <activity, negative = inhibition>
inactive

$$$$

* * *

Target: Cytochrome P450 3A4 (Homo sapiens)
Experiment: Cytochrome panel assay with activity outcomes
Conditions: recombinant CYP, pro-luciferin dealkylation, luminescence, p450-cyp3a4; series mostly up to 57.1 µM
Out of some 16,000 compounds screened, about 5,100 (32%) were called active. Another 25% or so got no clear call; they are omitted. The list shows a part of the results.

>  <MOLECULE>
COCCNC(=S)N1C2CCC1CC(NC(=O)NC13CC4CC(CC(C4)C1)C3)C2 (stereo not drawn)

>  <AC50>
3.16 µM (active)

$$$$
>  <MOLECULE>
COCCCn1c(N)c(C(=O)Nc2sc3c(c2C(=O)OC)CCCC3)c2nc3ccccc3nc21

>  <AC50>
15.8 µM (active)

$$$$
>  <MOLECULE>
CC(C)(C)NC[C@@H](O)COc1cccc2[nH]c(C#N)cc12

>  <AC50>
25.1 µM (active)

$$$$

* * *

Target: Cytochrome P450 3A4 (Homo sapiens) (UniProt P08684)
Sequence (P08684 whole entry, looked up): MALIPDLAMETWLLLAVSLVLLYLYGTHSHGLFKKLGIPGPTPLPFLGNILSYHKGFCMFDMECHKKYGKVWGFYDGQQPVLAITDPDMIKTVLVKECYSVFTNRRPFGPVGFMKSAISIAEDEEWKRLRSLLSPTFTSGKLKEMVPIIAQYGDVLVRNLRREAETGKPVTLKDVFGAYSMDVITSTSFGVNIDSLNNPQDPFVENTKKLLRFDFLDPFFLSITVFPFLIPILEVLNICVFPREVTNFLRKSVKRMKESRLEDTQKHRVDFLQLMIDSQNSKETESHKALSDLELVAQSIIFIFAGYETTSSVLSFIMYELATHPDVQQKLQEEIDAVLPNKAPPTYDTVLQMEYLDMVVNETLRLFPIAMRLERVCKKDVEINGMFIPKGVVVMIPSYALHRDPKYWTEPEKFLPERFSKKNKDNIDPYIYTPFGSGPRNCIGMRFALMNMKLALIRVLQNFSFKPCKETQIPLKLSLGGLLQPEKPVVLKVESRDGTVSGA
Test: Cytochrome panel assay with activity outcomes; on activity, negative = inhibition: on the % scale 0 is the no-effect control and ±100 the full control effect
Details: recombinant CYP, pro-luciferin dealkylation, luminescence, p450-cyp3a4; series mostly up to 57.1 µM
The whole screen tested about 16,000 compounds, of which about 5,100 (32%) were called active. Roughly 25% stayed inconclusive and do not appear here. This is one part of the list.

>  <COMPOUND>
C=CCn1c(O)c(C(CC)=NC2CC2)c(=O)[nH]c1=O

>  <activity, negative = inhibition>
-14.9% [at 2.29 µM] (inactive)

$$$$
>  <COMPOUND>
CN1CCN(c2ncc3ncc(=O)n(C)c3n2)CC1

>  <activity, negative = inhibition>
inactive

$$$$
>  <COMPOUND>
O=C1CS[C@@H](c2ccccc2Cl)c2cc(Cl)ccc2N1

>  <activity, negative = inhibition>
inactive

$$$$
>  <COMPOUND>
CCCC[N+]1(C)[C@@H]2CC(OC(=O)[C@@H](CO)c3ccccc3)C[C@H]1[C@H]1O[C@H]12 (stereo not given in full)

>  <activity, negative = inhibition>
inactive

$$$$
>  <COMPOUND>
CC[C@@H]1CN2CCc3cc(OC)c(OC)cc3[C@H]2C[C@@H]1C[C@@H]1NCCc2cc(O)c(OC)cc21

>  <activity, negative = inhibition>
inactive

$$$$
>  <COMPOUND>
CCCN(CCC)[C@@H]1CCc2c(OC)cccc2[C@@H]1C

>  <activity, negative = inhibition>
inactive

$$$$
>  <COMPOUND>
C[C@H]1CC[C@@]2(NC1)O[C@@H]1C[C@H]3[C@@H]4CC[C@@H]5C[C@@H](O)CC[C@@]5(C)[C@@H]4CC[C@]3(C)[C@@H]1[C@@H]2C

>  <activity, negative = inhibition>
inactive

$$$$
>  <COMPOUND>
COC1=C[C@H]2C3=C([C@H]2C1=O)[C@H](NC(C)=O)CCc1cc(OC)c(OC)c(OC)c13

>  <activity, negative = inhibition>
inactive

$$$$
>  <COMPOUND>
C[N+]1(C)[C@@H]2CC(OC(=O)[C@@H](CO)c3ccccc3)C[C@@H]1[C@H]1O[C@H]12 (stereo not given in full)

>  <activity, negative = inhibition>
2.59% [at 11.4 µM] (inactive)

$$$$
>  <COMPOUND>
O=C(O)Cc1ccc([N+](=O)[O-])cc1[N+](=O)[O-]

>  <activity, negative = inhibition>
-8.12% [at 11.4 µM] (inactive)

$$$$
>  <COMPOUND>
CC(C)[C@@H]1CN[C@H](C(=O)O)[C@@H]1CC(=O)O

>  <activity, negative = inhibition>
inactive

$$$$
>  <COMPOUND>
Clc1cc(I)cc(Cl)c1NC1=NCCN1

>  <activity, negative = inhibition>
inactive

$$$$
>  <COMPOUND>
c1ccc(N2CCC3(CCNCC3)CC2)cc1

>  <activity, negative = inhibition>
inactive

$$$$
>  <COMPOUND>
O=C(O)[C@H]1[O][Sb][O][C@@H](C(=O)O)C1O (stereo not given in full)

>  <activity, negative = inhibition>
-10.4% [at 11.4 µM] (inactive)

$$$$
>  <COMPOUND>
O=C(O)/C=C(\CC(=O)O)C(=O)O

>  <activity, negative = inhibition>
-2.52% [at 11.4 µM] (inactive)

$$$$
>  <COMPOUND>
CS(=O)(=O)N1CCCC(C(=O)N2CCC3(CC2)OCCO3)C1 (stereo not given)

>  <activity, negative = inhibition>
1.72% [at 2.29 µM] (inactive)

$$$$
>  <COMPOUND>
O=C(CCN1CC2CCC(CC2)C1)c1cccs1

>  <activity, negative = inhibition>
-19.3% [at 11.4 µM] (inactive)

$$$$
>  <COMPOUND>
C[C@@]12CC[C@H]3[C@@H](CC=C4C[C@H](OS(=O)(=O)O)CC[C@]43C)[C@H]1CCC2=O

>  <activity, negative = inhibition>
inactive

$$$$
>  <COMPOUND>
CP(=O)(O)CCCN

>  <activity, negative = inhibition>
inactive

$$$$
>  <COMPOUND>
CN1[C@@H](C[C@@H](O)c2ccccc2)CCC[C@@H]1C[C@H](O)c1ccccc1

>  <activity, negative = inhibition>
inactive

$$$$
>  <COMPOUND>
CCc1ccc(CCN2CCCCC2)nc1

>  <activity, negative = inhibition>
-16.1% [at 11.4 µM] (inactive)

$$$$
>  <COMPOUND>
O=C1N[C@@]2(CN3CCC2CC3)C(=O)N1CN(Cc1ccccc1)c1ccccc1

>  <activity, negative = inhibition>
1.78% [at 11.4 µM] (inactive)

$$$$
>  <COMPOUND>
CCOP(=O)(CN(CC)CCNP(=O)(OCC)OCC)OCC

>  <activity, negative = inhibition>
10.5% [at 2.29 µM] (inactive)

$$$$
>  <COMPOUND>
C[C@]12CC[C@H]3c4ccc(O)cc4CC[C@@H]3[C@H]1CC[C@@H]2OP(=O)(O)O

>  <activity, negative = inhibition>
0.528% [at 11.4 µM] (inactive)

$$$$
>  <COMPOUND>
COC(=O)[C@H](N)CCCN=C(N)N[N+](=O)[O-]

>  <activity, negative = inhibition>
inactive

$$$$
>  <COMPOUND>
COc1ccc(C(=O)O[C@H]2CC[C@@]3(C)[C@H]4CC[C@H]5[C@]3(C[C@]3(O)[C@H]6CN7C[C@H](C)CC[C@H]7[C@](C)(O)[C@]6(O)[C@H](O)C[C@]53O)O[C@]24O)cc1OC

>  <activity, negative = inhibition>
-3.45% [at 11.4 µM] (inactive)

$$$$
>  <COMPOUND>
CCC1=C(C[C@H]2NCCc3ccccc32)C[C@@H]2c3cc(OC)c(OC)cc3CCN2C1

>  <activity, negative = inhibition>
-26.3% [at 11.4 µM] (inactive)

$$$$
>  <COMPOUND>
CC1=C(O)C(=O)[C@H]2O[C@@H]2C1=O

>  <activity, negative = inhibition>
inactive

$$$$
>  <COMPOUND>
C[C@@H]1O[C@H](OC2[C@@H](O)[C@H](O)C(O)[C@H](O)[C@H]2O)[C@@H](N)C[C@@H]1N=C(N)C(=O)O (stereo not given in full)

>  <activity, negative = inhibition>
2.45% [at 11.4 µM] (inactive)

$$$$
>  <COMPOUND>
NCCCNCCSP(=O)(O)O

>  <activity, negative = inhibition>
inactive

$$$$
>  <COMPOUND>
COc1cc2c(cc1OC)[C@@]13CCN4C=C5CCO[C@H]6CC(=O)N2[C@@H]1[C@@H]6[C@H]5C[C@H]43

>  <activity, negative = inhibition>
13.3% [at 11.4 µM] (inactive)

$$$$
>  <COMPOUND>
c1ccc(N2CC3(CCNCC3)C2)cc1

>  <activity, negative = inhibition>
inactive

$$$$
>  <COMPOUND>
O=C(Cn1ncc2ccsc2c1=O)N1CCC2(CC1)OCCO2

>  <activity, negative = inhibition>
inactive

$$$$
>  <COMPOUND>
CN1[C@@H]2CC[C@H]1CC(OC(=O)c1cc(Cl)cc(Cl)c1)C2 (stereo not given in full)

>  <activity, negative = inhibition>
inactive

$$$$
>  <COMPOUND>
C[C@H](N)[C@H](O)c1ccc(O)c(O)c1

>  <activity, negative = inhibition>
inactive

$$$$
>  <COMPOUND>
CCCn1c(C)c(C(=O)c2cccc3ccccc23)c2ccccc21

>  <activity, negative = inhibition>
inactive

$$$$
>  <COMPOUND>
C[C@@H]1O[C@@H](O[C@H]2C[C@@H](O)[C@@]3(CO)[C@H]4[C@H](O)C[C@]5(C)[C@@H](C6=CC(=O)OC6)CC[C@]5(O)[C@H]4CC[C@@]3(O)C2)[C@@H](O)[C@H](O)[C@H]1O

>  <activity, negative = inhibition>
10.6% [at 11.4 µM] (inactive)

$$$$
>  <COMPOUND>
CC1(C)N(O)C(c2ccc(C(=O)O)cc2)=[N+]([O-])C1(C)C

>  <activity, negative = inhibition>
inactive

$$$$
>  <COMPOUND>
NC(N)=NCCC[C@H](N)C(=O)O

>  <activity, negative = inhibition>
inactive

$$$$
>  <COMPOUND>
C[C@@]12CC[C@H](O[C@@H]3O[C@H](CO)[C@@H](O)[C@H](O)[C@@H]3O)C[C@@H]1CC[C@H]1[C@H]2CC[C@@]2(C)[C@@H](C3=CCOC3=O)CC[C@]12O

>  <activity, negative = inhibition>
0.209% [at 11.4 µM] (inactive)

$$$$
